Target: 58 kinases
Test: Kinase panel (Z′-Lyte, Adapta/Lanthascreen), 58 kinases
Assay type: biochemical
Conditions: number of the 58 kinases inhibited more than 80% at 500 nM
Some molecules, each annotated with its measured Kinase panel @500 nM hits > 80%.

Check out these entries, answers already filled in.
molecule	tested.target	Kinase panel @500 nM hits > 80%
NC[C@H](c1cccc(Cl)c1)n1ccc(-c2c[nH]c3ncc(N4CCOCC4)cc23)cc1=O [Comparative compound A (S), reference compound]	58 kinases	15/58
CN(C)C[C@H](c1ccc(F)c(Br)c1)n1ccc(-c2c[nH]c3ncc(N4CCOCC4)cc23)cc1=O [Compound no7 (S)]	58 kinases	1/58
CN(C)C[C@H](c1cc(Cl)cc(Cl)c1)n1ccc(-c2c[nH]c3ncc(N4CCOCC4)cc23)cc1=O [Compound no3 (S)]	58 kinases	1/58
CN(C)C[C@H](c1cccc(F)c1)n1ccc(-c2c[nH]c3ncc(N4CCOCC4)cc23)cc1=O [Compound no1 (S)]	58 kinases	1/58
CNC[C@H](c1ccc(Cl)c(Cl)c1)n1ccc(-c2c[nH]c3ncc(N4CCOCC4)cc23)cc1=O [Comparative compound B (S), reference compound]	58 kinases	10/58
CN(C)C[C@H](c1ccc(Cl)c(Cl)c1)n1ccc(-c2c[nH]c3ncc(N4CCOCC4)cc23)cc1=O [Compound no4 (S)]	58 kinases	1/58
CN(C)C[C@H](c1cccc(Cl)c1)n1ccc(-c2c[nH]c3ncc(N4CCOCC4)cc23)cc1=O [Compound no2 (S)]	58 kinases	1/58
CN(C)C[C@H](c1cccc(Br)c1)n1ccc(-c2c[nH]c3ncc(N4CCOCC4)cc23)cc1=O [Compound no5 (S)]	58 kinases	1/58

Now consider the entry below.
Q: Provide value of Kinase panel @500 nM hits > 80% for this record tested with 58 kinases: CN(C)C[C@H](c1ccc(F)c(I)c1)n1ccc(-c2c[nH]c3ncc(N4CCOCC4)cc23)cc1=O [Compound no8 (S)]
Result: 1/58

* * *

Target: 58 kinases
Experiment: Kinase panel (Z′-Lyte, Adapta/Lanthascreen), 58 kinases
Format: biochemical
Conditions: number of the 58 kinases inhibited more than 50% at 500 nM
Some compounds, each annotated with its measured Kinase panel @500 nM hits > 50%.

Q: # input compound: CN(C)C[C@H](c1ccc(F)c(I)c1)n1ccc(-c2c[nH]c3ncc(N4CCOCC4)cc23)cc1=O [Compound no8 (S)] ; wanted: its Kinase panel @500 nM hits > 50%
Result: 7/58

Q: # input compound: CN(C)C[C@H](c1ccc(Cl)c(Cl)c1)n1ccc(-c2c[nH]c3ncc(N4CCOCC4)cc23)cc1=O [Compound no4 (S)] ; wanted: its Kinase panel @500 nM hits > 50%
Result: 5/58

Q: # input compound: NC[C@H](c1cccc(Cl)c1)n1ccc(-c2c[nH]c3ncc(N4CCOCC4)cc23)cc1=O [Comparative compound A (S), reference compound] ; wanted: its Kinase panel @500 nM hits > 50%
Result: 26/58

Q: # input compound: CN(C)C[C@H](c1cccc(F)c1)n1ccc(-c2c[nH]c3ncc(N4CCOCC4)cc23)cc1=O [Compound no1 (S)] ; wanted: its Kinase panel @500 nM hits > 50%
Result: 2/58

Q: # input compound: CN(C)C[C@H](c1cccc(Cl)c1)n1ccc(-c2c[nH]c3ncc(N4CCOCC4)cc23)cc1=O [Compound no2 (S)] ; wanted: its Kinase panel @500 nM hits > 50%
Result: 10/58

Q: # input compound: CN(C)C[C@H](c1cc(Cl)cc(Cl)c1)n1ccc(-c2c[nH]c3ncc(N4CCOCC4)cc23)cc1=O [Compound no3 (S)] ; wanted: its Kinase panel @500 nM hits > 50%
Result: 6/58

Q: # input compound: CNC[C@H](c1ccc(Cl)c(Cl)c1)n1ccc(-c2c[nH]c3ncc(N4CCOCC4)cc23)cc1=O [Comparative compound B (S), reference compound] ; wanted: its Kinase panel @500 nM hits > 50%
Result: 20/58

Q: # input compound: CN(C)C[C@H](c1ccc(F)c(Br)c1)n1ccc(-c2c[nH]c3ncc(N4CCOCC4)cc23)cc1=O [Compound no7 (S)] ; wanted: its Kinase panel @500 nM hits > 50%
Result: 4/58

Q: # input compound: CN(C)C[C@H](c1cccc(Br)c1)n1ccc(-c2c[nH]c3ncc(N4CCOCC4)cc23)cc1=O [Compound no5 (S)] ; wanted: its Kinase panel @500 nM hits > 50%
Result: 7/58
